study system: GST-Bcl-2 (Homo sapiens (Human))
Sequence (P10415 whole entry): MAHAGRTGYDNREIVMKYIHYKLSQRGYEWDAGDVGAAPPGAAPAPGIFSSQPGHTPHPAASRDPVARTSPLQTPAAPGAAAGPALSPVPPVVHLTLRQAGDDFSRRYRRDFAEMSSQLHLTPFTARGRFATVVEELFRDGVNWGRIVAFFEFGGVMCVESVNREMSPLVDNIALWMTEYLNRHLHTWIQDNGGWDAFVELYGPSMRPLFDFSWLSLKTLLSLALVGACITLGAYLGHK
method summary: Time Resolved-Fluorescence Resonance Energy Transfer (TR-FRET) Bcl-2 binding assay
pKi: −log10 of the molar value.
Some molecules, each annotated with its measured pKi.
readout kind: pKi

* CC1(C)CCC(CN2CCN(c3ccc(C(=O)NS(=O)(=O)c4ccc(N[C@H]5CC[C@H](N6CCOCC6)CC5)c([N+](=O)[O-])c4)c(Oc4cc5cc[nH]c5c(F)c4F)c3)CC2)=C(c2ccc(Cl)cc2)C1 | 10.41
* CO[C@H]1CC[C@H](CNc2ccc(S(=O)(=O)NC(=O)c3ccc(N4CCN(CC5=C(c6ccc(Cl)cc6)CC(C)(C)CC5)CC4)cc3Oc3cnc(N)c(Br)c3)cc2[N+](=O)[O-])CC1 | 10.92
* CC1(C)CCC(CN2CCN(c3ccc(C(=O)NS(=O)(=O)c4ccc(N[C@H]5CC[C@H](N6CCOCC6)CC5)c([N+](=O)[O-])c4)c(Oc4cccc5c4CCNC5=O)c3)CC2)=C(c2ccc(Cl)cc2)C1 | 9.09
* CC1(C)CCC(CN2CCN(c3ccc(C(=O)NS(=O)(=O)c4ccc(N[C@H]5CC[C@H](N6CCOCC6)CC5)c([N+](=O)[O-])c4)c(Oc4cc5cc[nH]c5cc4F)c3)CC2)=C(c2ccc(Cl)cc2)C1 | 10.00
* CC1(C)CC(c2ccc(Cl)cc2)=C(CN2CCN(c3ccc(C(=O)NS(=O)(=O)c4ccc(N[C@H]5CC[C@H](N6CCOCC6)CC5)c([N+](=O)[O-])c4)c(Oc4cc5cc[nH]c5cc4Cl)c3)CC2)CO1 | 9.90
* O=C(NS(=O)(=O)c1ccc(N[C@H]2CC[C@H](N3CCOCC3)CC2)c(S(=O)(=O)C(F)(F)F)c1)c1ccc(N2CCN(CC3=C(c4ccc(Cl)cc4)CCOCC3)CC2)cc1Oc1cc2cc[nH]c2cc1Cl | 8.51
* CC1(C)CCC(CN2CCN(c3ccc(C(=O)NS(=O)(=O)c4ccc(O[C@H]5CC[C@H](N6CCOCC6)CC5)c([N+](=O)[O-])c4)c(Oc4cc5cc[nH]c5cc4F)c3)CC2)=C(c2ccc(Cl)cc2)C1 | 9.73
* CC1(C)CCC(CN2CCN(c3ccc(C(=O)NS(=O)(=O)c4ccc(N[C@H]5CC[C@H](N6CCOCC6)CC5)c([N+](=O)[O-])c4)c(Oc4cccc5c4CC(=O)N5)c3)CC2)=C(c2ccc(Cl)cc2)C1 | 10.55
